Here the recorded IC50 is given for each entry.
- assay_system: BAT homogenate Na^+, K^+ -ATPase
- assay_procedure: stimulation of Na^+, K^+ -ATPase in BAT homogenate
- conditions: homogenate; read-out: IC50 for stimulation (to 50% maximum) of BAT Na^+,K-ATP-ase, homogenate
Write down the numeric answer in nM and omit the unit.

1. CC1(C)CN=C2N(C1)c1ccccc1C2(O)c1ccccc1 (single isomer, unassigned; (-)) [(-)] | 32

Could you now consider this next compound?
IN: // output IC50; input CC1(C)CN=C2N(C1)c1ccccc1C2(O)c1ccccc1 (racemic) [(±)] ; system BAT homogenate Na^+, K^+ -ATPase
OUT: 43

====

- Test system: noradrenaline (NA) uptake into brain slices
- assay_procedure: inhibition of noradrenaline uptake in brain slices
- Format: cell-based, rat (adult male Sprague-Dawley)
- conditions: mean ± S.E. mean of 6 experiments; rat brain slices
endpoint: IC50 (nM)
Quick reminder: number only, in nM, skip the unit.

1. CC1(C)CN=C2N(C1)c1ccccc1C2(O)c1ccccc1 (single isomer, unassigned; (-)) [(-)] | 2400

Please look at the following molecule next.
IN: Fill in reported IC50 for this entry: CC1(C)CN=C2N(C1)c1ccccc1C2(O)c1ccccc1 (racemic) [(±)]
OUT: 3400

src = patent US4451465A
